# assayTarget: von Willebrand factor (vWF), A1 domain sites in plasma/blood (Homo sapiens, UniProt P04275 P04275:764-2813)
# Sequence (P04275 764-2813, one chain of several): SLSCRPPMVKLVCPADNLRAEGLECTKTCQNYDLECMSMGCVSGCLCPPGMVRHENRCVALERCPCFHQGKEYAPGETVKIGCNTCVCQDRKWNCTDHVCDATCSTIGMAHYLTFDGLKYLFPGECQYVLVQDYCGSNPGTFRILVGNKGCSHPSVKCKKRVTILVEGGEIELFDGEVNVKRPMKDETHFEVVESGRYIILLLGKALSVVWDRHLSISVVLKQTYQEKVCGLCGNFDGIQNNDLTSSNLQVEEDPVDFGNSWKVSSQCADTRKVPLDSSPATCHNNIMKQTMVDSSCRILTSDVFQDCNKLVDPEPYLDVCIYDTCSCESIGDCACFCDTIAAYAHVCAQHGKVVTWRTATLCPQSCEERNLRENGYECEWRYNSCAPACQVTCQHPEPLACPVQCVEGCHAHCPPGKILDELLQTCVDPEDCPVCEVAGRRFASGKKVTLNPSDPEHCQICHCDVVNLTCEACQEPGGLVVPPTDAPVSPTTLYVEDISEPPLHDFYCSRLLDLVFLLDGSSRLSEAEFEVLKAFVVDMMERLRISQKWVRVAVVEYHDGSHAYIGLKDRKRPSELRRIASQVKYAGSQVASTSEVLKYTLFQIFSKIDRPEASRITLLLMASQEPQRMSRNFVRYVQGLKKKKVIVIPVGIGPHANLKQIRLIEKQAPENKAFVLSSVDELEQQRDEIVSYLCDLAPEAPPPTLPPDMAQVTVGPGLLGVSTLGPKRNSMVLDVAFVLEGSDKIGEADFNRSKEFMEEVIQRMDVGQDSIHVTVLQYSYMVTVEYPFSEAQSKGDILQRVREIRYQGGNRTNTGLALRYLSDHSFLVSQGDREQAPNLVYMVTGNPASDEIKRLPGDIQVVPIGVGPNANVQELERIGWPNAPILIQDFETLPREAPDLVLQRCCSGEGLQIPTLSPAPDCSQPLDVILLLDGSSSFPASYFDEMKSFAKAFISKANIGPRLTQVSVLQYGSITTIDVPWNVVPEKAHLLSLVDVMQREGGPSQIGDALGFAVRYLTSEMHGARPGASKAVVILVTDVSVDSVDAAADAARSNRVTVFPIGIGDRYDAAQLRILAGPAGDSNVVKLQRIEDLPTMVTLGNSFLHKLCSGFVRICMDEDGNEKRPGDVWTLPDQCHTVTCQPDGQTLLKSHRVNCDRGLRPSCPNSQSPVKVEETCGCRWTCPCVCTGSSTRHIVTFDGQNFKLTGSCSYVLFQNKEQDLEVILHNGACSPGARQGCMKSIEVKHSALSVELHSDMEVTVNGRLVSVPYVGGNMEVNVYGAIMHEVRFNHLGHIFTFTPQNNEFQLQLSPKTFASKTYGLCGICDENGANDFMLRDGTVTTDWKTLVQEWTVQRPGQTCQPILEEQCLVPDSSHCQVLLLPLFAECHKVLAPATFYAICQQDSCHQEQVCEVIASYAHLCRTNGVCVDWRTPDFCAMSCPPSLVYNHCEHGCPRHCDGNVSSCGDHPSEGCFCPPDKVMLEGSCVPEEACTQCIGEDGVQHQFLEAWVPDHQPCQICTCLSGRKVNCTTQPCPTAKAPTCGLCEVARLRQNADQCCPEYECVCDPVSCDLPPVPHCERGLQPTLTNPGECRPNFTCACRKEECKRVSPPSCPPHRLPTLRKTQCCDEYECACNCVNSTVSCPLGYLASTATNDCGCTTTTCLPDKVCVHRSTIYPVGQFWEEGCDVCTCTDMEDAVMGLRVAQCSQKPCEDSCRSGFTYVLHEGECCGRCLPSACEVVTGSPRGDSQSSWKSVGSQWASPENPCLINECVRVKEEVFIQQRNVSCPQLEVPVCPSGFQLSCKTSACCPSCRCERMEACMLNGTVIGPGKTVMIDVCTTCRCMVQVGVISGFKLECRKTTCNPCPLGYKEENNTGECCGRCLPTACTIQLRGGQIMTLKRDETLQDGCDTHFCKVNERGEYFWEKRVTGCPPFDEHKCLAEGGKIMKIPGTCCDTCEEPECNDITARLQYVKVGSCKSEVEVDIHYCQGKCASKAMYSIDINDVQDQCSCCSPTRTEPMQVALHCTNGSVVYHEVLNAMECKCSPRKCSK
# assay: free vWF A1 sites activity ELISA, plasma after dosing of healthy volunteers, Emax fit; 0.22 ug/mL; EC90 151 nM
# testConditions: protein: extract
observedProperty: EC50 (nM)

GCGUGCAGUGCCUUCGGCCGTGCGGTGCCUCCGUCACGC (mixed, mGmCmGmUdGdCdAmGmUmGmCmCmUmUmCmGmGmCdCmG-s-dTmGdCdGdGdTmGmCdCmUdCdCmGmUdCmAmCmGmC-3T (m 2'-OMe; d deoxy; s PS; 3T inverted dT), 5'-20 kDa PEG) [ARC1779] :: 17
